# testTarget: Lats1 (Homo sapiens)
# Construct: purchased Carna 01-123
# Sequence (O95835 1-1130): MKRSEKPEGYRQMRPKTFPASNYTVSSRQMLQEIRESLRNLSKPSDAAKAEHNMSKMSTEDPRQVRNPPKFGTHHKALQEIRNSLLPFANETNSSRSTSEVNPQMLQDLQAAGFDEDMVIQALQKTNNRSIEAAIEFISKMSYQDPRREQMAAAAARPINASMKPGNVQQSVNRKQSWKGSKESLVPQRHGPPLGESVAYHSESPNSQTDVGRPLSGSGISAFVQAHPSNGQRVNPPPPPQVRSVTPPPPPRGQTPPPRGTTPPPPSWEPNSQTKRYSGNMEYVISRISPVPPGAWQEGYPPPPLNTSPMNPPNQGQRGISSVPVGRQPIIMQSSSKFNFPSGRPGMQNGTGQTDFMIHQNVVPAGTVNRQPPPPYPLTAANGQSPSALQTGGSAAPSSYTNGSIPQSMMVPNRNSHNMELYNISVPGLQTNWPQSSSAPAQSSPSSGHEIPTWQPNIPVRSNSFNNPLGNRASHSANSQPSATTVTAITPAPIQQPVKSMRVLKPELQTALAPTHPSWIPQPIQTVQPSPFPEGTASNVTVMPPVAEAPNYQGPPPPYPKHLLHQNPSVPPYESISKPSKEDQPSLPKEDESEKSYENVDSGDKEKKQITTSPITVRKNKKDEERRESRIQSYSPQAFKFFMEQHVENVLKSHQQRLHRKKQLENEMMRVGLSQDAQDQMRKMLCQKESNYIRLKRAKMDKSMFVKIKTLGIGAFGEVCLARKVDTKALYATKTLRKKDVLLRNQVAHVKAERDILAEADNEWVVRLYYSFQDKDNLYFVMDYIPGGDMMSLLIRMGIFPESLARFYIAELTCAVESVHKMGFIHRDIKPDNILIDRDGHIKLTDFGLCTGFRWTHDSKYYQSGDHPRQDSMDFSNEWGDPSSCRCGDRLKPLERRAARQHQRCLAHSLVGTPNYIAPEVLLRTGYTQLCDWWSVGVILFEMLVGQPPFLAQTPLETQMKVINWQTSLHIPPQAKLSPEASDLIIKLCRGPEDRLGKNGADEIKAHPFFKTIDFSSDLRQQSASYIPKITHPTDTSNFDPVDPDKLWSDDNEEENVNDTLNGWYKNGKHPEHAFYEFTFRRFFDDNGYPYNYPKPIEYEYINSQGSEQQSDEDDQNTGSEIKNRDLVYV
# procedureSummary: In vitro kinase assay (HTRF KinEASE-STK S1) Lats1, 10 uM ATP
# Format: biochemical
# conditionsUsed: 10 uM ATP; read-out: LATS1_HTRF_10 uM ATP IC50
Please note: IC50 exactly at 90 nM is criterion not met. Only values below 90 nM get criterion met.

IC50 under 90 nM? Item: CC(N)CCn1ccs/c1=N\C(=O)c1c[nH]c2ncccc12 (centres unmarked) criterion met

IC50 under 90 nM? Item: `Cc1cn(Cc2ccccc2)/c(=N/C(=O)c2c[nH]c3ncccc23)s1` criterion met

IC50 under 90 nM? Item: `N#Cc1ccc(Cn2ccs/c2=N\C(=O)c2c[nH]c3ncccc23)cc1` criterion not met

IC50 under 90 nM? Item: `CCn1ccs/c1=N\C(=O)c1c[nH]c2ncccc12` criterion met

IC50 under 90 nM? Item: `O=C(/N=c1\occn1Cc1ccccc1)c1c[nH]c2ncccc12` criterion met

IC50 under 90 nM? Item: `NCc1ccc(Cn2ccs/c2=N\C(=O)c2c[nH]c3ncccc23)cc1` criterion met

IC50 under 90 nM? Item: `N#Cc1cccc(Cn2ccs/c2=N\C(=O)c2c[nH]c3ncccc23)c1` criterion not met

IC50 under 90 nM? Item: `N#Cc1ccccc1Cn1ccs/c1=N\C(=O)c1c[nH]c2ncccc12` criterion met

IC50 under 90 nM? Item: `COC(=O)c1cccc(Cn2ccs/c2=N\C(=O)c2c[nH]c3ncccc23)c1` criterion not met

IC50 under 90 nM? Item: `O=C(O)c1cccc(Cn2ccs/c2=N\C(=O)c2c[nH]c3ncccc23)c1` criterion not met

IC50 under 90 nM? Item: `NCc1ccccc1Cn1ccs/c1=N\C(=O)c1c[nH]c2ncccc12` criterion met

IC50 under 90 nM? Item: `Cn1ccs/c1=N\C(=O)c1c[nH]c2ncccc12` criterion not met

IC50 under 90 nM? Item: `Cc1[nH]c2ncccc2c1C(=O)/N=c1\sccn1Cc1ccccc1` criterion not met

IC50 under 90 nM? Item: `Cc1ccc2c(C(=O)/N=c3\sccn3Cc3ccccc3)c[nH]c2n1` criterion not met

IC50 under 90 nM? Item: `NCc1cccc(Cn2ccs/c2=N\C(=O)c2c[nH]c3ncccc23)c1` criterion met

IC50 under 90 nM? Item: `O=C(/N=c1\sccn1-c1ccccc1)c1c[nH]c2ncccc12` criterion met

IC50 under 90 nM? Item: `Cn1nccc1Cn1ccs/c1=N\C(=O)c1c[nH]c2ncccc12` criterion not met

IC50 under 90 nM? Item: `Cc1cnc2[nH]cc(C(=O)/N=c3\sccn3Cc3ccccc3)c2c1` criterion not met

Origin of values: patent US12617785B2
